Tgt: T1, human TSH receptor (full length), coated on tubes (human, UniProt P16473 22-764)
T1 construct: TSHR coated tubes as described in WO2004/050708A2; Exact preparation on the tubes is not detailed here; also called thyroid stimulating hormone receptor
Assay details: competition with 125I-K1-18 IgG on TSHR coated tubes; 0.01 µg/mL, diluted in HBD serum pool
Catalogue of binders with associated Inhibition of binding (%)
Reply numerically in %, unit not repeated.

Binder	Inhibition of binding (%)
K1-70 Fab (Fab, V domains shown) VH: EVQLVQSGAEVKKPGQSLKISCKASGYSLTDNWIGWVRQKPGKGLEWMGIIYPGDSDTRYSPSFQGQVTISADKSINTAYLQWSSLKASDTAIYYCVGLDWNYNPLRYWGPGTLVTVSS VL: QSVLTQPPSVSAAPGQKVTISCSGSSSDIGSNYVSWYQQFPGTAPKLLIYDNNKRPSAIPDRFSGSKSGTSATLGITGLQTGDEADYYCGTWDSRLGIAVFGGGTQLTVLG	16.2
K1-18 Fab (Fab, V domains shown) VH: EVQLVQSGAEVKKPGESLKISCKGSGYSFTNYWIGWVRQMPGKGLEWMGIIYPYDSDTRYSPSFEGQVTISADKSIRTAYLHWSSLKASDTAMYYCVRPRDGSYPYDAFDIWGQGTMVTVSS VL: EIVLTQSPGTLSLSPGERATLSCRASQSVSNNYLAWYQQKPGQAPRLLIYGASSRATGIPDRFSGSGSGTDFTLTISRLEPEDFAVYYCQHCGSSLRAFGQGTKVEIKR	1.8
K1-18 IgG (antibody, V domains shown) VH: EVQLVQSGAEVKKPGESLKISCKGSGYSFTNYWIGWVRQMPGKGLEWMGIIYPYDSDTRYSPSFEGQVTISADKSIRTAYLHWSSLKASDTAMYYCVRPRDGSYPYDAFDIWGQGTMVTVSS VL: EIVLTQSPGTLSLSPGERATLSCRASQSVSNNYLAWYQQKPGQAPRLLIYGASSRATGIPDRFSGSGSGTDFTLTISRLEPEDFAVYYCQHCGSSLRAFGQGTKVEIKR	5.8

Switching to the query record.
Record summary for K1-70 IgG (antibody, V domains shown) VH: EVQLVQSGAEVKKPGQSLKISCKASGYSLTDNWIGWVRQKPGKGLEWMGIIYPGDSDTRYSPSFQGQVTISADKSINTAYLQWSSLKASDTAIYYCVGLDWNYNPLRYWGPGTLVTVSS VL: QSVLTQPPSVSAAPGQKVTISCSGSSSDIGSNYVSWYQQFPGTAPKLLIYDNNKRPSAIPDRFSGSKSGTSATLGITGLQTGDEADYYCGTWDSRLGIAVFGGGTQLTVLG : reported Inhibition of binding (%) = 6.1
